- Target or test system: T1, recombinant human soluble gpNMB (recombinant human gpNMB-FLAG-His) (human, UniProt Q14956 23-498)
- T1 sequence: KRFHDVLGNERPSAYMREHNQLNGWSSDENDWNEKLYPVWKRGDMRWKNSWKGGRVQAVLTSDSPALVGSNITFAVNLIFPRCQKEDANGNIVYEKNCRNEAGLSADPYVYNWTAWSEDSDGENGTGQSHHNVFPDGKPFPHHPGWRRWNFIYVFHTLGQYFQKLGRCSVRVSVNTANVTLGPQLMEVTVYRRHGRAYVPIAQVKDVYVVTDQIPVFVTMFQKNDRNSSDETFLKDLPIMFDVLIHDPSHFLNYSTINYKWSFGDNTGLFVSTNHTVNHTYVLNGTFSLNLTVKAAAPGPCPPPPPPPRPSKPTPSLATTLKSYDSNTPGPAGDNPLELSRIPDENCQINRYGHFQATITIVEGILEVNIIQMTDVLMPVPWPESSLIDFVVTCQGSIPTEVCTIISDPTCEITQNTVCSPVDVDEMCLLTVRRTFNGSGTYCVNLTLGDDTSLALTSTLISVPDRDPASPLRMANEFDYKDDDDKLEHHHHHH
- Procedure details: SPR single-cycle kinetics, antibody over captured gpNMB-FLAG-His, 36C, mean of 2
Property name: kon (M⁻¹ s⁻¹)
# unit: M⁻¹ s⁻¹ | format: bare number

Task: Return kon (reported value) for this binder: hGPN18-5_H1L1 (antibody, V domains shown, humanized; also called hGPN18-5_VH1+VL1) VH: QVQLVQSGAEVKKPGASVKVSCKASGYTFTTYWMNWVRQAPGQGLEWIGAINPSNDYTEYNQKFKDRVTMTADTSTSTVYMELSSLRSEDTAVYYCGRSYSPDYWGQGTTVTVSS VL: DIQMTQSPSSLSASVGDRVTITCKASQNVDNHVAWFQQKPGKAPKALIYSASYRYSGVPSRFSGSGSGTDFTLTISSLQPEDFATYFCQQYKSYPFTFGGGTKLEIK
Output: 308000

Task: Return kon (reported value) for this binder: hGPN18-5_H0L0 (antibody, V domains shown, chimeric antibody with mouse GPN18-5 variable regions (VH0, VL0); also called hGPN18-5_VH0+VL0; HGPN18-5_VH0+VL0) VH: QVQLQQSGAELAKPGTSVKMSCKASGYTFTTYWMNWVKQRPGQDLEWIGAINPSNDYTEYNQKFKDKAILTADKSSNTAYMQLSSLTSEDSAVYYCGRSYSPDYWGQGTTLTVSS VL: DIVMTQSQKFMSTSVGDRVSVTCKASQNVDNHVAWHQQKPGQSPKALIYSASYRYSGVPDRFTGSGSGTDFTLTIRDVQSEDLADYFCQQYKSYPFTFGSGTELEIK
Output: 237000

Task: Return kon (reported value) for this binder: hGPN18-5_H3L3 (antibody, V domains shown, humanized; also called hGPN18-5_VH3+VL3) VH: QVQLVQSGAEVKKPGASVKVSCKASGYTFTTYWMNWVRQAPGQGLEWIGAINPSNDYTEYNQKFKDRAIMTADKSTSTVYMELSSLRSEDTAVYYCGRSYSPDYWGQGTTVTVSS VL: DIQMTQSPSSLSASVGDRVTITCKASQNVDNHVAWHQQKPGKAPKALIYSASYRYSGVPDRFTGSGSGTDFTLTISSLQPEDFADYFCQQYKSYPFTFGGGTKLEIK
Output: 176000
